- protocolDetails: PK in rat
- appliedConditions: in vivo, iv, 1 mg/kg i.v., read-out: t1/2 i.v. (converted)
reportedProperty: half-life (h)
Just the number in h, nothing appended.

Name the recorded half-life for COc1cc2nccc(Oc3ccc(NC(=O)c4cn(C(C)C)c(=O)n(-c5ccc(F)cc5)c4=O)cc3F)c2cc1OC . 21.5

====

- targetOfAssay: AXL (Homo sapiens)
- Sequence (P30530 26-894): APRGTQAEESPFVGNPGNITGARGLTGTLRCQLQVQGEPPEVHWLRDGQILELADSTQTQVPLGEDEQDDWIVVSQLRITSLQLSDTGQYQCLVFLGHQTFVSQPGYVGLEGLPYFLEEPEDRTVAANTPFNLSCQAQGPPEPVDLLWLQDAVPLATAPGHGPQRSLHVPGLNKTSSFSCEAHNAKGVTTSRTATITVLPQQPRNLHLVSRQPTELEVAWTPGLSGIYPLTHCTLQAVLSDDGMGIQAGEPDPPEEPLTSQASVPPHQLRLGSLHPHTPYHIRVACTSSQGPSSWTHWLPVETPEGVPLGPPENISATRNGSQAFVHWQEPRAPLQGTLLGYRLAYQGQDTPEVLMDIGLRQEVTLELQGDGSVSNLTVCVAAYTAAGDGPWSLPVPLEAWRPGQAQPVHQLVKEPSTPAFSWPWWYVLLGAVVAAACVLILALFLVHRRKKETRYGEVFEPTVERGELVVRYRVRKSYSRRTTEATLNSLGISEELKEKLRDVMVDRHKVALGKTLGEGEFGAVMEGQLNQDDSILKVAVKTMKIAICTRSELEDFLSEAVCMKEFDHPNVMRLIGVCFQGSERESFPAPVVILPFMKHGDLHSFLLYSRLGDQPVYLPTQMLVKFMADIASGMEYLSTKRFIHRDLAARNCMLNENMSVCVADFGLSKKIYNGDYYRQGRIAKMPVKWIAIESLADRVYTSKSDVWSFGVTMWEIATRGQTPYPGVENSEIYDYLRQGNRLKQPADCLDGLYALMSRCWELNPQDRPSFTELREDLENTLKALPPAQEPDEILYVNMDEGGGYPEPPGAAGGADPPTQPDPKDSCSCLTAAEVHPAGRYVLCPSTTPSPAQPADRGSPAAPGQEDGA
- protocolDetails: Cellular AXL inhibition in AXL-transfected 293GT cells
- Type: cell-based
reportedProperty: IC50 (nM)
Just the number in nM, nothing appended.

For the record COc1cc2nccc(Oc3ccc(NC(=O)c4cn(C(C)C)c(=O)n(-c5ccc(F)cc5)c4=O)cc3F)c2cc1OC [CEP-40783] , what value of IC50 is listed for AXL (Homo sapiens)? 0.26
